Target: AbCGT V183E (Aloe vera, UniProt A0A7G9P699, V183E)
Sequence (A0A7G9P699 1-470 V183E): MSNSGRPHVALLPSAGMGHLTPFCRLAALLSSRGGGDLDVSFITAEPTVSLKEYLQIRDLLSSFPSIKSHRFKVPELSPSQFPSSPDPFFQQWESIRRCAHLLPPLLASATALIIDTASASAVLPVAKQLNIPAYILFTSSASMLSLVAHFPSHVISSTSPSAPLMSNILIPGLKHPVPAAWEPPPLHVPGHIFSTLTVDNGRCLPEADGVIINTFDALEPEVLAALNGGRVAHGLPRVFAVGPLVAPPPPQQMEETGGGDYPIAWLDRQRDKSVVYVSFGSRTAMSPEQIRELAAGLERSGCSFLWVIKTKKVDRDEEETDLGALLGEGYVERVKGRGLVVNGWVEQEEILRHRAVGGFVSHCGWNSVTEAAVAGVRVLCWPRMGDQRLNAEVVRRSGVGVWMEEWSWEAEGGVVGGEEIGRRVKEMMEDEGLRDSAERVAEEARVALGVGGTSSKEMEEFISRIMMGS
Assay: Glycosyltransferase activity of AbCGT variant V183E
Type: biochemical, Aloe barbadensis
Conditions: reaction-3
readout name: V183E/yield of C-glycoside(%)

compound: COc1cc(O)c(C(C)=O)c(OC)c1
system: AbCGT V183E (Aloe vera, UniProt A0A7G9P699, V183E)
result value: 7.5%

compound: Oc1cc(O)cc(OCCCCCCc2ccccc2)c1
system: AbCGT V183E (Aloe vera, UniProt A0A7G9P699, V183E)
result value: 0%

compound: CC(=O)c1c(O)cccc1O
system: AbCGT V183E (Aloe vera, UniProt A0A7G9P699, V183E)
result value: 0%

compound: CC(=O)c1cc(O)cc(O)c1 [Compound 4, 3,5-dihydroxyacetophenone]
system: AbCGT V183E (Aloe vera, UniProt A0A7G9P699, V183E)
result value: 0%

compound: CC(=O)c1ccc(O)cc1
system: AbCGT V183E (Aloe vera, UniProt A0A7G9P699, V183E)
result value: 0%

compound: CC(=O)c1cccc(O)c1
system: AbCGT V183E (Aloe vera, UniProt A0A7G9P699, V183E)
result value: 0%

compound: CC(=O)c1ccc(O)cc1O [Compound 6, 2,4-dihydroxyacetophenone]
system: AbCGT V183E (Aloe vera, UniProt A0A7G9P699, V183E)
result value: 6.8%

compound: CC(=O)c1c(O)cc(C)cc1O
system: AbCGT V183E (Aloe vera, UniProt A0A7G9P699, V183E)
result value: 13.1%

compound: COc1cc(O)c(C(C)=O)c(O)c1
system: AbCGT V183E (Aloe vera, UniProt A0A7G9P699, V183E)
result value: 6%

---

Biological target: AbCGT (Aloe vera, UniProt A0A7G9P699)
Assay: Glycosyltransferase activity assay, purified AbCGT (wild type) with aglycon acceptors and UDP-Glc
Type: biochemical, Aloe barbadensis
Settings: reaction-3
Method: Due to the instability of some acceptors in the buffer of pH 11.0, the reactions were performed under the physiological conditions (pH 7.4, 30 °C) to compare the catalytic activities of AbGT27 with different substrates under the same conditions. The reactions were performed at 30 °C for up to 12 h and terminated by the addition of 200 μL of ice-cold methanol. Subsequently, samples were centrifuged at 15,000 × g for 30 min to collect the supernatant, and aliquots were analyzed by HPLC-UV/ESIMS. […]
Threshold check on WT/yield of C-glycoside(%): at or above 70% gives T, strictly below gives F.

molecule: CC(=O)c1cc(O)cc(O)c1 [Compound 4, 3,5-dihydroxyacetophenone]
label value: F

molecule: O=C1CC(O)(c2ccc(O)cc2)Oc2cc(O)cc(O)c21 (centres unmarked) [Compound 23, 2-hydroxynaringenin]
label value: T

molecule: CC(=O)c1ccccc1O [Compound 1]
label value: F

molecule: CC(=O)c1c(O)cc(C)cc1O [Compound 7]
label value: F
